Assay summary: Plasma netilmicin after intraduodenal netilmicin/PEP (HPLC)
Format: in vivo
Experimental setup: male, Sprague-Dawley, rat, other: intraduodenal, rats, netilmicin/PEP 80 mg/kg netilmicin, 60 min
Measured property: concentration at 60 min (µg/mL)
Express it in µg/mL; write the number only.

Let me know recorded concentration at 60 min for CCN[C@@H]1C[C@H](N)[C@@H](O[C@H]2OC(CN)=CC[C@H]2N)[C@H](O)[C@H]1O[C@H]1OC[C@](C)(O)[C@H](NC)[C@H]1O , thanks. 70.7

====

Assay summary: Plasma aztreonam after intraduodenal aztreonam/PEP (HPLC)
Format: in vivo
Experimental setup: male, Sprague-Dawley, rat, other: intraduodenal, rats, aztreonam/PEP (40 mg/kg aztreonam, 400 mg/kg sucrose palmitate, glucosamine, methylcellulose, arginine), 30 min
Measured property: concentration at 30 min (µg/mL)
Express it in µg/mL; write the number only.

Let me know recorded concentration at 30 min for C[C@H]1[C@H](NC(=O)/C(=N\OC(C)(C)C(=O)O)c2csc(N)n2)C(=O)N1S(=O)(=O)O , thanks. 95.4

====

Assay summary: Plasma aztreonam after intraduodenal aztreonam/PEP (HPLC)
Assay type: in vivo
Experimental setup: male, Sprague-Dawley, rat, other: intraduodenal, rats, aztreonam/PEP 40 mg/kg aztreonam, 60 min
Measured property: concentration at 60 min (µg/mL)
Express it in µg/mL; write the number only.

Let me know recorded concentration at 60 min for C[C@H]1[C@H](NC(=O)/C(=N\OC(C)(C)C(=O)O)c2csc(N)n2)C(=O)N1S(=O)(=O)O , thanks. 97

====

Assay summary: Plasma netilmicin after intraduodenal netilmicin/PEP (HPLC)
Format: in vivo
Experimental setup: male, Sprague-Dawley, rat, rats, netilmicin/PEP 80 mg/kg netilmicin, read-out: percent bioavailability
Measured property: bioavailability (%)
Express it in %; write the number only.

Let me know recorded bioavailability for CCN[C@@H]1C[C@H](N)[C@@H](O[C@H]2OC(CN)=CC[C@H]2N)[C@H](O)[C@H]1O[C@H]1OC[C@](C)(O)[C@H](NC)[C@H]1O [Netilmicin] , thanks. 73

====

Assay summary: Plasma isepamicin after intraduodenal isepamicin/PEP (HPLC)
Format: in vivo
Experimental setup: male, Sprague-Dawley, rat, other: intraduodenal, rats, isepamicin/PEP 75 mg/kg isepamicin, 240 min
Measured property: concentration at 240 min (ng/mL)
Express it in ng/mL; write the number only.

Let me know recorded concentration at 240 min for CN[C@@H]1[C@@H](O)[C@@H](O[C@@H]2[C@@H](O)[C@H](O[C@H]3O[C@H](CN)[C@@H](O)[C@H](O)[C@H]3O)[C@@H](N)C[C@H]2NC(=O)[C@@H](O)CN)OC[C@]1(C)O , thanks. 43900

====

Assay summary: Plasma aztreonam after intraduodenal aztreonam/PEP (HPLC)
Format: in vivo
Experimental setup: male, Sprague-Dawley, rat, other: intraduodenal, rats, aztreonam/PEP 40 mg/kg aztreonam, 240 min
Measured property: concentration at 240 min
Please answer in the form of a number followed by its unit of measurement.

Let me know recorded concentration at 240 min for C[C@H]1[C@H](NC(=O)/C(=N\OC(C)(C)C(=O)O)c2csc(N)n2)C(=O)N1S(=O)(=O)O , thanks. 55.2 µg/mL

====

Assay summary: Plasma netilmicin after intraduodenal netilmicin/PEP (HPLC)
Format: in vivo
Experimental setup: male, Sprague-Dawley, rat, other: intraduodenal, rats, netilmicin/PEP (80 mg/kg netilmicin, 400 mg/kg sucrose stearate, glucosamine, methylcellulose), 30 min
Measured property: concentration at 30 min (µg/mL)
Express it in µg/mL; write the number only.

Let me know recorded concentration at 30 min for CCN[C@@H]1C[C@H](N)[C@@H](O[C@H]2OC(CN)=CC[C@H]2N)[C@H](O)[C@H]1O[C@H]1OC[C@](C)(O)[C@H](NC)[C@H]1O , thanks. 62.1
